- System: Plasmodium falciparum
- TEST_METHOD_NOTES: Confirmatory screen in NF54 nanoGlo assay, in single point, at 2uM, 72h
- Type: functional, Erythrocyte
- CONDITION_SUMMARY: timepoint 72 hour
About 420 (8.8%) of roughly 4,800 compounds showed an effect of 50% or more. The list comes from a sample in which strong results are over-represented; it also holds close analogues and randomly drawn compounds.
Documented % Inhibition across a set of compounds
Give your result in % as a bare value.

COc1ccc(OC)c(CN2C(=O)c3cc4c(OC)ccc(OC)c4n3C[C@]2(C(=O)NC2CCCCCC2)c2ccccc2)c1    18

Consider the record given below.
Query: % Inhibition; subject: CC(C)(C)c1ccc(-c2cc(C[C@H]3CNCC[C@H]3CC(=O)NCCN3CCOCC3)no2)cc1
9

====

Documented % Inhibition across a set of molecules
- System: Plasmodium falciparum
- TEST_METHOD_NOTES: Confirmatory screen in NF54 nanoGlo assay, in single point, at 2uM, 72h
- Format: functional, Erythrocyte
- CONDITION_SUMMARY: timepoint 72 hour
Among all 4,800 compounds or so, about 420 (8.8%) showed an effect of 50% or more. Shown is part of a subset that was picked to be rich in strong results.
Give your result in % as a bare value.

O=C(NC1CCOCC1)c1ccc(-c2ccc(F)c(F)c2F)cn1    6
CN(C)c1ccc(C(=O)N[C@@]2(C)CCS(=O)(=O)C2)cc1    -6
CN1CCCN(c2ccnc3ccsc23)CC1    2
Cn1cc(CNC(=O)NCC2(Cc3ccccc3)CCC2)cn1    -4
Cc1cc(C)n(-c2ccc(CN3C(=O)NC4(CCCC4)C3=O)cc2)n1    -4

Query: % Inhibition; subject: CC1(C)C[C@@H](NC(=O)c2cc3[nH]cnc3cc2F)CCO1
7

====

Documented % Inhibition across a set of molecules
- Tested on: Plasmodium falciparum
- TEST_METHOD_NOTES: Confirmatory screen in NF54 nanoGlo assay, in single point, at 2uM, 72h
- Format: functional, Erythrocyte
- CONDITION_SUMMARY: timepoint 72 hour
Hit rate of the full screen: of about 4,800 compounds, about 420 (8.8%) showed an effect of 50% or more. What follows is part of a selection rich in strong results, with near analogues and random picks from the rest.
Give your result in % as a bare value.

Cc1ccc2c(c1)c1c(n2S(=O)(=O)c2ccc(C(C)(C)C)cc2)CCCN(C)C1    76
O=C(CNC(=O)[C@H]1CC[C@H](CNS(=O)(=O)c2ccccc2)CC1)N1CCN(c2ccccc2)CC1    4
Cc1ccc(S(=O)(=O)N2CCN(S(C)(=O)=O)C2)cc1    0
Cc1nc2c(sc(=S)n2-c2ccc(Cl)c(Cl)c2)c(=O)[nH]1    -2
Cc1ccc(S(=O)(=O)N2CCCC(=O)c3ccccc32)cc1    -3

Consider the record given below.
Query: % Inhibition; subject: Cc1ccc(NC(=O)c2cc3nccc(-c4ccc(F)cc4)n3n2)nc1
-7

====

- Test system: Plasmodium falciparum
- TEST_METHOD_NOTES: Confirmatory screen in NF54 nanoGlo assay, in single point, at 2uM, 72h
- Format: functional, Erythrocyte
- CONDITION_SUMMARY: timepoint 72 hour
Hit rate of the full screen: of about 4,800 compounds, about 420 (8.8%) showed an effect of 50% or more. Only a selection was taken, and strong results are over-represented in it overall.
READOUT_LABEL: % Inhibition (%)
Give your result in % as a bare value.

Solved cases (3 shown):
CC(C)[C@H](Nc1ccc2nccnc2n1)c1nnc2n1CCC2    -8
O=C(NCCN1CCCC1)c1ccc2nc(-c3ccc(Cl)cc3)cn2c1    18
CCc1ccc(CN2CCC[C@H](c3ncc[nH]3)C2)nc1    52

Consider the record given below.
Query: % Inhibition; subject: O=C(O)Cc1sc(-c2ccc(Cl)cc2)nc1-c1ccc(Oc2ccccc2)cc1
0

====

- System: Plasmodium falciparum
- TEST_METHOD_NOTES: Confirmatory screen in NF54 nanoGlo assay, in single point, at 2uM, 72h
- Type: functional, Erythrocyte
- CONDITION_SUMMARY: timepoint 72 hour
About 420 (8.8%) of roughly 4,800 compounds showed an effect of 50% or more. The sample holds strong results, similar compounds and a random draw of the others, so the mix is not that of the screen.
Documented % Inhibition across a set of molecules
Just the number plus its unit, please.

Solved cases (3 shown):
CC(C)C[C@H](N)C(=O)N1CC2CCCCC2C1 (some centres not stated)    -3%
c1cn(CCCOc2ccc3c(c2)OCO3)nn1    3%
Cc1ccc(-n2nc(C)cc2NC(=O)CN2CCCN(c3ccc(C(F)(F)F)cn3)CC2)cc1    6%

Query: % Inhibition; subject: CCOc1ccc(C2c3[nH]c4ccccc4c3C[C@H]3C(=O)N(C4CCN(Cc5ccccc5)CC4)CC(=O)N23)cc1OC (some centres not stated)
80%

Query: % Inhibition; subject: O=C(c1ccccc1)c1ccc(O)c(CN2CCCN(c3ccc(C(F)(F)F)cn3)CC2)c1O
79%

Query: % Inhibition; subject: Fc1cccc(Br)c1C1CC(c2cccnc2)Nc2ncnn21 (configuration not stated)
-9%

Query: % Inhibition; subject: CC(=O)Nc1ccc(C)cc1S(=O)(=O)N1CC=C(c2c(C)n(Cc3ccccc3C)c3ccccc23)CC1
91%

Query: % Inhibition; subject: Cc1ccc(C(=O)N[C@@H](C)CCc2ccccc2)cc1S(=O)(=O)N1CCN(C)CC1
-20%

Query: % Inhibition; subject: CCOc1ccc([C@@H](Nc2nc(C)cc(C)n2)c2cc(C)sc2NC(=O)c2ccccc2)cc1
1%

Query: % Inhibition; subject: COc1cccc(C(=O)N2CCCO[C@H](C(C)C)C2)c1
-9%

Query: % Inhibition; subject: Fc1cccc(-n2nc(-c3ccccc3F)cc2-c2ccccc2F)c1
-6%

Query: % Inhibition; subject: Cc1nc(-c2ccc(N3CCC(NCCCn4ccnc4)CC3)cc2)cs1
12%

Query: % Inhibition; subject: Cn1ccc2cccc(NC(=O)N3CC(C)(CO)C3)c21
1%

Query: % Inhibition; subject: Cc1ccc(C)n1-c1ccc(Cl)c(C(=O)NC[C@H]2COCCO2)c1
-4%

Query: % Inhibition; subject: Cc1cc(C)n(NC(=O)CCn2nc(C(F)(F)F)c(Br)c2C2CC2)c(=O)c1
3%

Query: % Inhibition; subject: O=C(Nc1ccccc1)c1cccc(CN2CCN3CCOC[C@@H]3C2)c1
-5%

Query: % Inhibition; subject: CC[n+]1c(C)n(C2CCCCC2)c2ccc(C(=O)OC)cc21
0%

Query: % Inhibition; subject: COc1ccccc1OCc1nn2c([C@H]3CCCN(S(C)(=O)=O)C3)nnc2s1
-3%

====

Documented % Inhibition across a set of compounds
- Tested on: Plasmodium falciparum
- TEST_METHOD_NOTES: Confirmatory screen in NF54 nanoGlo assay, in single point, at 2uM, 72h
- Type: functional, Erythrocyte
- CONDITION_SUMMARY: timepoint 72 hour
Hit rate of the full screen: of about 4,800 compounds, about 420 (8.8%) showed an effect of 50% or more. This excerpt belongs to a sample that is enriched for strong results.
Give your result in % as a bare value.

CC(C)c1ncsc1C(=O)NC(C)(C)C(=O)NCC1CCCC1    -13
Cc1cc2ncn([C@@H](C)c3nc(-c4cnccn4)cs3)c2cc1C    0
NC(=O)c1cccc(NC(=O)CC2=CCCCC2)n1    -11
CCn1nccc1C(=O)N1CC[C@H](CC(=O)NCc2ccncc2)C1    -6
Cc1cc(C(=O)NCc2ccncc2)no1    -11

Query: % Inhibition; subject: CCN1C(=O)[C@@]2(CC(=O)Nc3c2c(C)nn3-c2ncnc3nc[nH]c23)c2cc(C)ccc21
2

Query: % Inhibition; subject: COc1cccc(C(=O)N2CCC(c3nc(-c4ccc5c(c4)OCO5)no3)CC2)c1OC
-3

Query: % Inhibition; subject: CC(C)Cn1cc2c(C(F)(F)F)cc(=O)n(CCC(=O)Nc3cc(F)ccc3F)c2n1
1

====

Documented % Inhibition across a set of compounds
- System: Plasmodium falciparum
- TEST_METHOD_NOTES: Confirmatory screen in NF54 nanoGlo assay, in single point, at 2uM, 72h
- Format: functional, Erythrocyte
- CONDITION_SUMMARY: timepoint 72 hour
The whole screen tested about 4,800 compounds, of which about 420 (8.8%) showed an effect of 50% or more. Only a selection was taken, and strong results are over-represented in it overall.
Give your result in % as a bare value.

Solved cases (5 shown):
COc1ccc(CCNc2nc(-c3ccc(OC)cc3F)c3c(N)n(-c4ccc(Cl)cc4)nc3n2)cc1    59
Cc1cc(NS(=O)(=O)c2cccs2)n(-c2ccncc2)n1    2
O=C(Nc1cccc2ccccc12)c1nn[nH]c1NS(=O)(=O)c1ccccc1    -9
Cc1cc(-n2c(C)cc(C(=O)Cn3c(C(F)(F)F)ccc(C(N)=O)c3=O)c2C)no1    25
c1cc([C@@H]2CCCCN2c2nc(C3CC3)ns2)n[nH]1    2

Query: % Inhibition; subject: O=S(=O)(Nc1nncs1)c1cccs1
-10

Query: % Inhibition; subject: Cc1nonc1N(Cc1ccc(Cl)cc1Cl)S(=O)(=O)c1ccccc1
-22

Query: % Inhibition; subject: CC1=CC(=[N+](CCO)CCO)C=C/C1=C(\c1ccc(N(CCO)CCO)cc1C)c1ccccc1Cl
91

Query: % Inhibition; subject: O=C(Nc1ccc(F)c(Cl)c1)c1ccn(COc2ccccc2Cl)n1
-6

Query: % Inhibition; subject: O=C(Nc1ccncc1)c1nc(N2CCCC2)ncc1Br
-5

Query: % Inhibition; subject: CC(C)Cc1cc(C(=O)N2CCc3c(C#N)cccc32)cc(O)n1
-8

Query: % Inhibition; subject: COc1ccc2ncc(=O)n(CCOc3ccccc3)c2c1
4

Query: % Inhibition; subject: NC(=O)C1CCN(C(=O)Nc2nc(C(F)(F)F)cs2)CC1
5
